The reported numbers originate from patent USRE48461E1.

system: AR mRNA; experiment: Dose-dependent antisense inhibition of human AR in HuVEC cells (electroporation, qRT-PCR RTS3559, IC50); assay type: cell-based; conditions: Table 29; 750.0 nM, HuVEC, electroporation, approximately 16 hours
Oligonucleotides are written 5' to 3', each unit as a sugar letter and its base; * is a phosphorothioate linkage, no mark a phosphodiester; rarer units and linkages stand in square brackets, end groups in braces. Plain capitals give the bases only. k = constrained ethyl (cEt); [5mC] = 5-methylcytosine; d = 2'-deoxy (DNA)
value kind: percent inhibition of AR, 750.0 nM (%)
Give the quantity in %, number only.

substance | unit string | percent inhibition of AR, 750.0 nM
583660 (antisense kG*kA*k[5mC]*dA*d[5mC]*dA*d[5mC]*dG*dG*dT*dG*dG*dA*k[5mC]*kA*kA) [compound 583660] | % | 61
549458 (kG*kT*kT*dG*dA*dT*dT*dT*dA*dA*dT*dG*dG*kT*kT*kG) [compound 549458] | % | 91
583609 (antisense k[5mC]*kA*kG*d[5mC]*dT*dA*dG*d[5mC]*dT*d[5mC]*dG*d[5mC]*d[5mC]*k[5mC]*kG*k[5mC]) [compound 583609] | % | 63
583564 (antisense kG*k[5mC]*kT*dT*d[5mC]*d[5mC]*dT*d[5mC]*d[5mC]*dG*dA*dG*dT*k[5mC]*kT*kT) [compound 583564] | % | 55
583567 (antisense kG*k[5mC]*kA*d[5mC]*dT*dT*dT*d[5mC]*d[5mC]*dT*dT*dG*d[5mC]*kT*kT*k[5mC]) [compound 583567] | % | 60

Look up percent inhibition of AR, 750.0 nM for this substance: 583638 (antisense kT*kG*kA*dT*d[5mC]*dT*d[5mC]*dT*dG*dG*d[5mC]*dT*d[5mC]*k[5mC]*kG*k[5mC]) [compound 583638]
79

Look up percent inhibition of AR, 750.0 nM for this substance: 549372 (kA*kA*kG*dT*dT*dG*dT*dA*dG*dT*dA*dG*dT*k[5mC]*kG*k[5mC]) [compound 549372]
70

Look up percent inhibition of AR, 750.0 nM for this substance: 583584 (antisense k[5mC]*k[5mC]*kG*dA*d[5mC]*dT*dG*dA*dG*dG*d[5mC]*dA*dG*k[5mC]*kT*kG) [compound 583584]
52

----------
test system: AR mRNA; assay: Dose-dependent antisense inhibition of human AR in HuVEC cells (electroporation, qRT-PCR RTS3559, IC50); type: cell-based; settings: Table 33; 46.9 nM, HuVEC, electroporation, approximately 16 hours
Oligonucleotides are written 5' to 3', each unit as a sugar letter and its base; * is a phosphorothioate linkage, no mark a phosphodiester; rarer units and linkages stand in square brackets, end groups in braces. Plain capitals give the bases only. k = constrained ethyl (cEt); [5mC] = 5-methylcytosine; d = 2'-deoxy (DNA)
value kind: percent inhibition of AR, 46.9 nM (%)
Give the quantity in %, number only.

// below: answered substances
substance | study system | percent inhibition of AR, 46.9 nM [%]
583920 (kT*kA*kG*dT*dA*dG*dT*d[5mC]*dG*d[5mC]*dG*dA*d[5mC]*kT*k[5mC]*kT; antisense) [compound 583920] | AR mRNA | 11
583893 (kA*kG*k[5mC]*dA*dG*d[5mC]*d[5mC]*dT*dA*dG*dG*d[5mC]*dT*k[5mC]*kT*k[5mC]; antisense) [compound 583893] | AR mRNA | 15

Now for a further substance.
# get_value(readout= percent inhibition of AR, 46.9 nM, system= AR mRNA) for 583833 (kT*kG*kT*dT*d[5mC]*d[5mC]*d[5mC]*d[5mC]*dT*dG*dG*dA*d[5mC]*kT*k[5mC]*kA; antisense) [compound 583833]
26

----------
system: AR mRNA; assay: Dose-dependent antisense inhibition of human AR in HuVEC cells (electroporation, qRT-PCR RTS3559, IC50); format: cell-based; settings: 62.5 nM; HuVEC, ~16 h; Table 11
Oligonucleotides are written 5' to 3', each unit as a sugar letter and its base; * is a phosphorothioate linkage, no mark a phosphodiester; rarer units and linkages stand in square brackets, end groups in braces. Plain capitals give the bases only. e = 2'-O-(2-methoxyethyl) (MOE); k = constrained ethyl (cEt); [5mC] = 5-methylcytosine; d = 2'-deoxy (DNA)
value kind: percent inhibition of AR (%)
Give the quantity in %, number only.

substance | reported
579671 (antisense eT*kT*kG*eA*kT*kT*dT*dA*dA*dT*dG*dG*dT*kT*kG*k[5mC]) [compound 579671] | 6
579670 (antisense eT*kG*kA*eT*kT*kT*dA*dA*dT*dG*dG*dT*dT*kG*k[5mC]*kA) [compound 579670] | 27

Now for a further substance.
Look up percent inhibition of AR for this substance: 549458 (kG*kT*kT*dG*dA*dT*dT*dT*dA*dA*dT*dG*dG*kT*kT*kG) [compound 549458]
16
